Data provenance is the supplement of paper PMC11061612.

System: GR-ST (B-Lymphoblastic Leukemia)
Assay: combination Emax (second highest fraction inhibited in the dose matrix, 72 h); higher = more inhibition; extreme values may be limits of the assay
quantity_kind: combination Emax

compound: CC1(C)CCC(CN2CCN(c3ccc(C(=O)NS(=O)(=O)c4ccc(NCC5CCOCC5)c([N+](=O)[O-])c4)c(Oc4cnc5[nH]ccc5c4)c3)CC2)=C(c2ccc(Cl)cc2)C1 [Venetoclax] + Cc1cc2ncnn2cc1Nc1ncc2c(n1)n(C1CCOCC1)c(=O)n2C [AZD7648] (first compound max 1 µM, 7x7, partner max 10 µM)
assay_target: GR-ST (B-Lymphoblastic Leukemia)
obs_value: 0.679
//
compound: Cc1c2c(nn1C)CSCc1cc(n(C)n1)CSc1cc(c3ccccc3c1)OCCCc1c(C(=O)O)n(C)c3c-2c(Cl)ccc13 [AZD5991] + C[C@@H]1COCCN1C2=NC(=NC(=C2)C3(CC3)[S@](=N)(=O)C)C4=C5C=CNC5=NC=C4 [AZD6738] (first compound max 1 µM, 7x7, partner max 10 µM)
assay_target: GR-ST (B-Lymphoblastic Leukemia)
obs_value: 0.716
//
compound: COc1cccc2c1C(=O)c1c(O)c3c(c(O)c1C2=O)C[C@@](O)(C(=O)CO)C[C@@H]3O[C@H]1C[C@H](N)[C@H](O)[C@H](C)O1 [Doxorubicin] + Cc1cc2ncnn2cc1Nc1ncc2c(n1)n(C1CCOCC1)c(=O)n2C [AZD7648] (first compound max 1 µM, 7x7, partner max 10 µM)
assay_target: GR-ST (B-Lymphoblastic Leukemia)
obs_value: 0.69
//
compound: NC1(C(=O)N[C@@H](CCO)c2ccc(Cl)cc2)CCN(c2ncnc3[nH]ccc23)CC1 [Capivasertib] + CCN(CCO)CCCOc1ccc2c(Nc3cc(CC(=O)Nc4cccc(F)c4)[nH]n3)ncnc2c1 [AZD2811] (first compound max 10 µM, 7x7, partner max 1 µM)
assay_target: GR-ST (B-Lymphoblastic Leukemia)
obs_value: 0.702
